Entry source: the supplement of paper PMC11616607

Tested on: OVCAR8
EXPERIMENT_DESCRIPTION: drug sensitivity score (DSS) from 5-point dose-response viability curve (DSS (area-under-curve based score)); higher = more sensitive (stronger growth inhibition or killing); extreme values may be limits of the assay
CONDITION: exposure time: 72 h; concentration range: 5 concentrations over 10,000-fold range
Would you please tag the item yes (1) when its drug sensitivity score is 2 or above, and no (0) when it is below?

Here's what some known entries look like.
| COMPOUND | ANSWER_LABEL |
| --- | --- |
| Cc1[nH]nc(C(F)(F)F)c1Cc1sc2c(c1C(=O)N1C[C@](C)(O)CO1)c(=O)n(C)c(=O)n2C(C)C | no (0) |
| C[C@@H]1CN(CC(=O)Nc2ccc3c(c2)Cc2cccc(-c4cc(=O)cc(N5CCOCC5)o4)c2S3)C[C@H](C)O1 | no (0) |

Input: Say whether O=C(Nc1ccc(OC(F)(F)Cl)cc1)c1cnc(N2CC[C@@H](O)C2)c(-c2cc[nH]n2)c1 shows drug sensitivity score of 2 or more.
Output: no (0)

Input: hey, is drug sensitivity score for this one >= 2? CC(C)C[C@@H](C(=O)N[C@H](C(=O)OC1CCCC1)c1ccccc1)[C@H](O)C(=O)NO
Output: yes (1)

Input: Has CNC(=O)c1ccccc1Nc1cc(Nc2ccc(N3CCOCC3)cc2OC)ncc1C(F)(F)F a recorded drug sensitivity score greater than or equal to 2?
Output: yes (1)

Input: Given the entry Clc1ccc(C(c2ccccc2Cl)C(Cl)Cl)cc1 (configuration not stated) , answer whether its drug sensitivity score meets or surpasses 2.
Output: no (0)

Input: For this compound, is measured drug sensitivity score 2 or higher? COc1cc2c(NC3CCN(C(C)C)CC3)nc(N3CCC(F)(F)CC3)nc2cc1OCCCN1CCCC1
Output: no (0)

Input: Form field: drug sensitivity score at least 2? Entry: COCCOc1cnc2ccn([C@H](C)c3nnc4c(F)cc(-c5cnn(C)c5)cn34)c(=O)c2c1
Output: no (0)

Input: Has CCc1nc(C(N)=O)c(Nc2ccc(N3CCC(N4CCN(C)CC4)CC3)c(OC)c2)nc1NC1CCOCC1 a recorded drug sensitivity score greater than or equal to 2?
Output: no (0)

Input: Record CC1=C(/C=C/C(C)=C/C=C/C(C)=C/C(=O)O)C(C)(C)CCC1 ; criterion: drug sensitivity score no lower than 2. Met?
Output: no (0)

* * *

Tested on: OVCAR5
EXPERIMENT_DESCRIPTION: drug sensitivity score (DSS) from 5-point dose-response viability curve (DSS (area-under-curve based score)); higher = more sensitive (stronger growth inhibition or killing); extreme values may be limits of the assay
CONDITION: exposure time: 72 h; concentration range: 5 concentrations over 10,000-fold range
MEASURED_QUANTITY: drug sensitivity score
Simply state the number, no unit and no words.

Previously resolved entries follow.
| ENTRY_SMILES | drug sensitivity score |
| --- | --- |
| Clc1ccc(Nc2nnc(Cc3ccncc3)c3ccccc23)cc1 | 0 |
| NC1(c2ccc(-c3nc4ccn5c(=O)[nH]nc5c4cc3-c3ccccc3)cc2)CCC1 | 2 |
| CN1CCN(C2CCN(C(=O)Nc3cc(Oc4ccc(NC(=O)C5(C(=O)Nc6ccc(F)cc6)CC5)c(F)c4)ccn3)CC2)CC1 | 0.1 |
| Cc1noc2c1-c1ccccc1C(c1ccc(Cl)cc1)=N[C@H]2CC(N)=O | 9.3 |
| Cc1nn(C)c(COc2ccc(N3CCN(S(=O)(=O)N(C)C)CC3)cc2)c1-c1cccc2c(CCCOc3cccc4ccccc34)c(C(=O)O)n(CCN3CCOCC3)c12 | 5.2 |
| Cc1ncc(Cl)cc1NCc1ccc(C(=O)N[C@@H](CC2CCCC2)C(=O)NC2CC2)s1 | 0 |
| Cc1cnc(Nc2ccc(OCCN3CCCC3)cc2)nc1Nc1cccc(S(=O)(=O)NC(C)(C)C)c1 | 7.2 |

Pending compound:
Input: State the recorded drug sensitivity score for this entry: CN1CCC(COc2cnc(-c3cccc(Cn4nc(-c5cccc(C#N)c5)ccc4=O)c3)nc2)CC1
Output: 0
